Tested on: 621-103 (TSC2-rescued);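 also: immortalized renal angiomyolipoma cells stably carrying empty vector or TSC2, dosed in 384-well plates in DMEM, viability normalized to vehicle-treated wells within each plate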
assay summary: relative viability vs DMSO; higher = less cytotoxic
settings: 0.001 µM; serum: 10% FBS; 72 h
Counter-ions that a name gives are not always drawn.
quantity name: relative viability (%)
Provide only the numeric value, understood in %.

compound=COc1cc2c(Nc3ccc(NC(=O)c4ccccc4)cc3)ncnc2cc1OCCCN1CCOCC1 quantity_name="relative viability" unit_spec=% value=111
compound="CN1CCc2c(c3ccccc3n2Cc2ccc(C(=O)NO)cc2)C1 [Tubastatin A HCl]" quantity_name="relative viability" unit_spec=% value=102
compound=CN(C)Cc1ccc(-c2nc3cccc4c3n2CCNC4=O)cc1 quantity_name="relative viability" unit_spec=% value=101
compound="COC1=C2C[C@@H](C)C[C@H](OC)[C@H](O)[C@@H](C)/C=C(\\C)[C@H](OC(N)=O)[C@@H](OC)/C=C\\C=C(/C)C(=O)NC(=CC1=O)C2=O [Geldanamycin]" quantity_name="relative viability" unit_spec=% value=77.8

API: the following record is the query input.
Inquiry: Supply reported relative viability belonging to this compound: CC[N+](CC)(CC)CCOc1cccc(OCC[N+](CC)(CC)CC)c1OCC[N+](CC)(CC)CC [Gallamine triethiodide (Flaxedil)]
Reply text: 87.2
